Attribution: PubChem BioAssay (NCI)

# Test system: NCI-H23 lung
# test.details: NCI tumour cell line growth inhibition, 48 h
Quick list: TGI per entry.

Some entries whose results are on file:
- CCCCCCCCCC(CCCC(O)CC(=O)O)OC1OC(COC2OC(C)C(OC(C)=O)C(O)C2O)C(O)C(O)C1OC1OC(CO)C(O)C(O)C1OC1OC(C)C(OC(=O)CC(C)C)C(O)C1O (configuration not stated): > 35 µM
- O=C(COc1ccc(OCC(=O)N2C(=O)CN(c3ccccc3)C2=S)cc1)N1C(=O)CN(c2ccccc2)C1=S: > 100 µM
- CCCCC(/C=C\COC1CCCCO1)=C/C(=O)OCC (configuration not stated): > 100 µM
- CCOc1ccc(OCC)c([P+](c2ccccc2)(c2ccccc2)c2ccccc2)c1: 1.17 µM

Fill in TGI for record CC(=O)[CH-]C(=O)c1ccccc1.CC(=O)[CH-]C(=O)c1ccccc1.CC(C)CCC[C@H](C)C1CCC2[C@@H]3CC=C4C[C@@H]([O-])CC[C@]4(C)C3CC[C@@]21C.CC(C)CCC[C@H](C)C1CCC2[C@@H]3CC=C4C[C@@H]([O-])CC[C@]4(C)C3CC[C@@]21C.Cl.[Ti+4] (some centres not stated) > 25 µM

Fill in TGI for record O=c1cc(NNc2ccccc2F)[nH]c(=O)[nH]1 31.6 µM

Fill in TGI for record CCOC(=O)c1cnc2c(ccc3[nH]cccc32)c1=O > 100 µM

----------
# Test system: DU-145 prostate
# test.details: NCI tumour cell line growth inhibition, 48 h
assay.metric: TGI

* CCCCCCCCCC(CCCC(O)CC(=O)O)OC1OC(COC2OC(C)C(OC(C)=O)C(O)C2O)C(O)C(O)C1OC1OC(CO)C(O)C(O)C1OC1OC(C)C(OC(=O)CC(C)C)C(O)C1O (stereo not given) | > 35 µM

API: the following record is the query input.
Using DU-145 prostate as the test system, report measured TGI of CC1(C)S[C@H](CN)N[C@H]1C(=O)OC(c1ccccc1)c1ccccc1 . > 100 µM

----------
# Test system: HOP-92 NSCLC
# test.details: NCI tumour cell line growth inhibition, 48 h
I would appreciate it if you labelled entries met when TGI is 30 µM or higher, otherwise not met.

• CN(C)CCn1cnc2ncccc2c1=O = met
• CCOC(=O)C(/C(=N\NC(=O)OC)C(=O)Nc1cc(OC)ccc1OC)c1cnc2ccccc2n1 (configuration not stated) = met
• COc1cc(C2C(C(=O)Nc3ccc([N+](=O)[O-])cc3)=C(C)NC(C)=C2C(=O)Nc2ccc([N+](=O)[O-])cc2)ccc1O = met
• Nc1nnnc2nc[nH]c12 = met
• CCOC(=O)[C@@H]1ON2O[C@H](OC3CCCCC3c3ccccc3)C[C@H]3OC(=O)[C@@H]1C32 (some centres not stated) = met
• Cc1ccc2nc(-c3ccc(NC(=O)c4ccc(N)cc4)c(S(=O)(=O)O)c3)sc2c1 = met
• OCCCSCCO = met
• CCOC(=O)c1c(NC(=O)c2ccccc2)sc2c3c(ccc12)OCN(C)C3 = not met

Alright, here's another compound for you.
API: above_or_equal(metric=TGI, cutoff=30 µM) for item NC(=O)NNCc1c(-c2ccccc2)no[n+]1[O-] met

----------
# Test system: MDA-N
# test.details: NCI tumour cell line growth inhibition, 48 h
Quick list: TGI per entry.

Some entries whose results are on file:
* O=C1C=CC(=Nc2cccc3c(N=C4C=CC(=O)O4)cccc23)O1 | 69.1 µM
* CCCCOCOc1ccccc1P1(=O)COc2ccccc2OC1 | > 100 µM
* CCCCC(/C=C\COC1CCCCO1)=C/C(=O)OCC (stereo unspecified) | > 100 µM
* C[N+]1(CCC(=O)c2ccccc2)CCC2CCC(C2)C1 (stereo unspecified) | > 100 µM
* O=C1/C(=C/c2[nH]ncc2-c2ccc(Cl)cc2)C(=O)N(c2ccccc2)C1c1ccccc1 (stereo unspecified) | 36.9 µM

API: the following record is the query input.
Fill in TGI for record Cc1nc(C)c(N2CCN(C(=O)O)CC2)c(=O)[nH]1 > 100 µM

----------
# Tested on: SK-MEL-28 melanoma
# test.details: NCI tumour cell line growth inhibition, 48 h
assay.metric: TGI

Some entries whose results are on file:
• COc1ccccc1-n1c(NN)nc2ccc(Br)cc2c1=O = > 100 µM
• N/C(=N\N=C\c1cc(I)cc(I)c1O)NO = > 100 µM
• COc1cc(C2c3[nH]c4ccccc4c3[C@@H](Nc3ccc(C#N)cc3)[C@H]3COC(=O)N23)cc(OC)c1O (stereo partly specified) = 2.73 µM
• CN(NC1OC(CO)C(O)C(O)C1O)c1ccccc1 (stereo unspecified) = > 100 µM

Fill in TGI for record CC(C)N(C(=O)C12C3C4C1C1C2C3C41I)C(C)C (stereo unspecified) > 100 µM

Fill in TGI for record O=C(Cc1ccc([N+](=O)[O-])c([N+](=O)[O-])c1CC(=O)C(=O)Nc1cc(Cl)ccc1Cl)C(=O)Nc1cc(Cl)ccc1Cl > 100 µM

----------
# System: HCC-2998 colon
# test.details: NCI tumour cell line growth inhibition, 48 h
assay.metric: TGI

• COc1ccc(Cl)cc1Nc1nc(C(F)(F)F)ccc1C(=O)N/N=C/c1cccnc1 = > 100 µM

Fill in TGI for record CN(C)CCn1cnc2ncccc2c1=O > 100 µM

Fill in TGI for record N#Cc1ncn(CCO)c1N > 100 µM

Fill in TGI for record CC(=O)Nc1ccc(C(=O)NN2C(=O)C(Cl)C2c2cccc([N+](=O)[O-])c2)cc1 (stereo not given) > 100 µM

Fill in TGI for record Cc1ccc(/C=C/c2c(C(=O)/C=C/c3ccc(Cl)cc3)c(C)nc3ccccc23)cc1 2.96 µM

----------
# System: A549 NSCLC
# test.details: NCI tumour cell line growth inhibition, 48 h
assay.metric: GI50

• COc1cc(/C=C/C(=O)/C=C/c2cc3ccc(Cl)cc3n(Cc3ccccc3)c2=O)ccc1O = 2.05 µM

Fill in GI50 for record Cc1ccc(NC(=O)Nc2c(Cl)cccc2Cl)cn1 8.51 µM

Fill in GI50 for record NC1=NC(=O)/C(=C/c2ccc3ncccc3c2)S1 > 25 µM

Fill in GI50 for record O=C(Nc1ccc(-n2ccc3c(NC(=O)c4ccccc4)nccc32)cc1)Nc1cccc(C(F)(F)F)c1 3.25 µM

Fill in GI50 for record C[C@@H](NC(=O)c1ncnc(N)c1Cl)c1ncc(C(=O)Nc2cc(C(F)(F)F)c(Cl)cn2)s1 18 µM

----------
# Test system: LXFL 529 NSCLC
# test.details: NCI tumour cell line growth inhibition, 48 h
assay.metric: TGI

Some entries whose results are on file:
* Clc1ccc(OCc2nnc3n2N=C(c2ccc(Br)cc2)CS3)cc1 | 70.3 µM
* COc1cc(-c2ccc(NC(=O)SCCC(=O)O)cc2OC)ccc1NC(=O)SCCC(=O)O | > 100 µM
* Cc1cc(=O)n(-c2c(C)cccc2Cl)c(/C=C(\O)c2ccncc2)n1 | > 100 µM
* C[C@@H]1OC2(O)[C@H]3CCCN3S(=O)(=O)CCN2C1=O (stereo partly drawn) | > 100 µM
* CC(C)N(C(=O)C12C3C4C1C1C2C3C41I)C(C)C (stereo not drawn) | > 100 µM

Fill in TGI for record O=C(N/N=C(/c1nc2ccc([N+](=O)[O-])cc2[nH]c1=O)C(O)c1ccc([N+](=O)[O-])cc1)c1ccncc1 (stereo not drawn) > 100 µM

Fill in TGI for record Cc1ccc(NC(=O)CSc2nnc(Cc3ccccc3)o2)cc1 > 100 µM

Fill in TGI for record CCOC(=O)c1cnc2c(ccc3[nH]cccc32)c1=O > 100 µM

----------
# Test system: SK-OV-3 ovarian
# test.details: NCI tumour cell line growth inhibition, 48 h; in the data active means GI50 below about 0.43 µM; inactive means the rest
Permitted responses: Yes = active, No = inactive

Observe how each entry below is paired with its result.
- Clc1ccc2ncc(-c3cccc(NC4CNC4)n3)n2c1: No
- COc1ccccc1/C=C/C1=C(C)CCC(c2ccccc2OC)C1C (configuration not stated): Yes
- O=C(Nc1ccccc1C(F)(F)F)c1ccc(NC2=C(Cl)C(=O)N(Cc3ccccc3)C2=O)cc1: No
- c1ccc(-c2n(Cc3ccc4ccccc4c3)cc[n+]2Cc2ccc3ccccc3c2)cc1: No
- COc1ccc(-c2[nH]nc(N)c2-c2cc(OC)c3c(c2)OCO3)cc1: No

Alright, here's another compound for you.
Call for entry Cc1nc(-c2cnc(NC(C)C)n(C)c2=O)ccc1Oc1ccnc(-c2cnn(C)c2)c1 : No

----------
Quick list: TGI per entry.
# System: MOLT-4 leukemia
# test.details: NCI tumour cell line growth inhibition, 48 h

Some entries whose results are on file:
* CC1=C(C(=O)NCc2ccccc2)C(c2ccccc2C)C(C(=O)NCc2ccccc2)=C(C)N1 | > 100 µM
* Cc1ccc(NC(=O)Nc2c(Cl)cccc2Cl)cn1 | 32.4 µM
* CCOC(=O)N(C)C(=C(F)F)C(F)(F)F | 51.6 µM

Fill in TGI for record O=C(O)C1CCCCN1C(=O)Cc1c[nH]c2ccccc12 (stereo unspecified) > 100 µM

Fill in TGI for record COc1ccc(-c2[nH]nc(N)c2-c2cc(OC)c3c(c2)OCO3)cc1 37.5 µM

Fill in TGI for record NC(=O)C(=CNC(=S)Nc1ccc(S(=O)(=O)Nc2ccccn2)cc1)C(N)=O 5.76 µM

Fill in TGI for record Nc1nnnc2nc[nH]c12 > 100 µM

Fill in TGI for record CC1=C[C@@H](C)C[C@]2(C)CC[C@H](O2)[C@]23CC[C@](CO)(C[C@H](O2)[C@@H]2O[C@@](C)(CC2=O)[C@@H](O)[C@H]2CC[C@@]4(CCC[C@@H](O4)[C@H](C)C(=O)O[C@H]4C[C@H]([C@]5(O)OCC[C@H](C)[C@@H]5O)O[C@H]4C=C1)O2)O3 > 10 µM

Fill in TGI for record COc1cc(/C=C/C(=O)/C=C/c2cc3ccc(Cl)cc3n(Cc3ccccc3)c2=O)ccc1O > 100 µM

Fill in TGI for record C[C@@H]1OC2(O)[C@H]3CCCN3S(=O)(=O)CCN2C1=O (stereo partly specified) > 100 µM

Fill in TGI for record CCCC(C)NC(=O)c1ccc(N(C)Cc2cnc3nc(N)nc(N)c3n2)cc1 (stereo unspecified) > 100 µM

Fill in TGI for record O=C(/C=C/C(Cl)(Cl)Cl)Nc1ccc(Cl)cc1 3.28 µM

Fill in TGI for record Nc1cc(C(F)(F)F)c(-c2cc(N3CCOCC3)nc(N3CCOCC3)n2)cn1 > 100 µM

Fill in TGI for record NC(=O)NNCc1c(-c2ccccc2)no[n+]1[O-] > 100 µM

Fill in TGI for record Cc1c(-c2ccc(O)cc2)oc(=O)c2ccc(O)cc12 > 100 µM

Fill in TGI for record COc1cc2c(cc1O)CN1CCC23C=C[C@@H](O)CC13 (stereo partly specified) > 100 µM

Fill in TGI for record Cn1c2[n+](c3nc(N)[nH]c(=O)c31)C1OC(C2)C(O)C1O (stereo unspecified) > 100 µM

Fill in TGI for record CC(C)CC1c2[nH]c3ccccc3c2C[C@H]2C(=O)NC(CCCCNC(=O)OC(C)(C)C)C(=O)N12 (stereo partly specified) 51.8 µM

Fill in TGI for record COc1cccc(/C=N/[N-]C(N)=O)c1[O-].[Ni+2].[OH3+] 1.58 µM

Fill in TGI for record Cc1nc(C)c(N2CCN(C(=O)O)CC2)c(=O)[nH]1 > 100 µM

Fill in TGI for record CC/C(=N/O)c1ccc2[nH]c3c(C)cc([N+](=O)[O-])c(C)c3c2c1 > 100 µM

Fill in TGI for record CCN(CC)CCC1(C2CCCCC2)CCC(=O)NC1=O (stereo unspecified) > 100 µM

Fill in TGI for record COc1cc(/C=C/c2ccc(Br)cc2)cc(OC)c1OC 15.6 µM

Fill in TGI for record Oc1cc(CN2CCOCCOCCOCCOCC2)c(O)cc1CN1CCOCCOCCOCCOCC1 52.6 µM

Fill in TGI for record COC(=O)c1nn2ccc3ccccc3c2c1C(=O)OC > 100 µM

Fill in TGI for record CC1C(=O)c2cc3c(cc2CCN(C)Cc2c1ccc1c2OCO1)OCO3 (stereo unspecified) > 75 µg/mL
